The origin of these recorded values is PubChem BioAssay.

Give measured nuclei count for each item. Keep answers brief.
- PROTOCOL_DESCRIPTION: inhibitors of mutant huntingtin aggregation, primary screen, imaging, exon1htt(103Q)mCFP cells, high-content imaging (AID 483);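 note: compound exposure lasted 3 days before fixation; percent of the per-plate median nuclei count of sample wells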
- MEASUREMENT_SETUP: exon1htt(103Q)mCFP cell line, aggregate imaging, at 2 µM; measured here: cell count, toxicity
Numbers only, in %.

COc1ccc(C)cc1S(=O)(=O)Nc1cccnc1; 78.8
COC(=O)c1ccccc1OCC(=O)NC1CCCCC1; 110
O=C(CSc1ncccn1)NCc1ccccc1; 103

Would you mind listing nuclei count for each of the following molecules?
1. Cn1c(=O)c2c(nc(CN3CCN(Cc4ccccc4)CC3)n2Cc2cccc(Cl)c2)n(C)c1=O
2. COC(=O)c1c(NC(=O)CSc2nnc(-c3cccnc3)n2Cc2ccco2)sc(C)c1C
3. O=C(NCCCN1CCCC1=O)c1ccc2c(=O)n(Cc3ccco3)c(=S)[nH]c2c1
4. COc1ccc(-n2c(SCc3ccc(C#N)cc3)nnc2-c2ccccn2)cc1
5. Cc1cc(NC(=O)Cc2cn3ccsc3n2)n(-c2ccccc2)n1
6. O=C(O)c1ccc2c(c1)N(Cc1ccccc1F)C(=O)c1ccccc1S2=O (stereo not drawn)

Output:
1: 100; 2: 101; 3: 74; 4: 105; 5: 104; 6: 64.2

Would you mind listing nuclei count for each of the following molecules?
1. O=C(CCCc1cccs1)Nc1nc2c(s1)CCCC2
2. Cc1nc2sc(C(c3cccs3)N3CCOCC3)c(O)n2n1 (stereo not drawn)
3. O=C(NCCSc1c[nH]c2ccccc12)c1ccc(Br)o1
4. Cn1cccc1Cc1nnc(SCC(=O)Nc2ccc(F)cc2)n1-c1ccc(F)cc1
5. COc1ccc2[nH]c(C)c(CCN3C(=O)OC(C)(C)C3(C)O)c2c1 (stereo not drawn)
6. CCOc1ccc(C2C=C(c3ccc(F)cc3)Nc3ncnn32)cc1 (stereo not drawn)

Output:
1: 102; 2: 112; 3: 114; 4: 95.4; 5: 97.3; 6: 74.5
